Assay: Membrane permeability test using Caco-2 cells with preincubation
Assay type: in vitro ADME
Conditions: Caco-2; preincubation 20 to 24 hours; Apical FaSSIF/HBSS pH 6.0, Basal HBSS 4% BSA pH 7.4; 180 minutes; read-out: Caco2 Papp
Positions of bridges follow the written chain, without caps; N, C: chain ends. Non-standard residues stand in square brackets, D forms with d. Residues, ends and D or L forms follow the SMILES beside them. *: point of attachment. NMeF = CN[C@@H](Cc1ccccc1)C(=O)O; NMeL = CN[C@@H](CC(C)C)C(=O)O; NMeAbu = CC[C@H](NC)C(=O)O; NMeA = CN[C@@H](C)C(=O)O; Piperidide = C1CCN(*)CC1; Sar = CNCC(=O)O; tBu = CC(C)(C)*
reported metric: Papp A→B (×10⁻⁶ cm/s)

1) CC[C@H](C)[C@@H]1NC(=O)[C@H](C)N(C)C(=O)C[C@@H](C(=O)N2CCCCC2)NC(=O)[C@H](CC)N(C)C(=O)[C@H](COC(C)(C)C)NC(=O)[C@H](CC(C)C)N(C)C(=O)[C@H](C)N(C)C(=O)[C@H](CC(C)C)N(C)C(=O)[C@H](Cc2ccccc2)N(C)C(=O)CN(C)C(=O)[C@H]([C@@H](C)O)NC(=O)[C@H](CC(C)C)N(C)C(=O)[C@H](C(C)C)NC(=O)[C@H](Cc2ccccc2)N(C)C1=O [pd045] ([NMeA]I[NMeF]V[NMeL]T[Sar][NMeF][NMeL][NMeA][NMeL]S(tBu)[NMeAbu]D-Piperidide; lactam N-14) = 0.32

* * *

Mouse Hepatic Microsome CLh,int NADPH(-): recorded values
Experiment: Metabolic stability test: liver microsomal stability assay
Format: in vitro ADME, mouse
Details: mouse liver microsomes 0.5 mg protein/mL, compound 1 µM, absence of NADPH
Positions of bridges follow the written chain, without caps; N, C: chain ends. Non-standard residues stand in square brackets, D forms with d. Residues, ends and D or L forms follow the SMILES beside them. *: point of attachment. NMeF = CN[C@@H](Cc1ccccc1)C(=O)O; NMeL = CN[C@@H](CC(C)C)C(=O)O; NMeV = CN[C@H](C(=O)O)C(C)C; d(β3hA) = C[C@@H](N)CC(=O)O; NMeA = CN[C@@H](C)C(=O)O; Piperidide = C1CCN(*)CC1; Abu = CC[C@H](N)C(=O)O; Sar = CNCC(=O)O; tBu = CC(C)(C)*
reported metric: Mouse Hepatic Microsome CLh,int NADPH(-)

1. CC[C@H](C)[C@@H]1NC(=O)[C@H](CC(C)C)N(C)C(=O)CN(C)C(=O)C[C@@H](C(=O)N2CCCCC2)NC(=O)[C@H](C)N(C)C(=O)CNC(=O)[C@H](C(C)C)N(C)C(=O)[C@H](C)N(C)C(=O)[C@H](Cc2ccccc2)N(C)C(=O)[C@H](C(C)C)NC(=O)[C@H](CC(C)C)NC(=O)[C@H](Cc2ccccc2)N(C)C(=O)[C@H]([C@@H](C)O)NC(=O)[C@H](CC(C)C)N(C)C1=O [pd039] ([Sar][NMeL]I[NMeL]T[NMeF]LV[NMeF][NMeA][NMeV]G[NMeA]D-Piperidide; lactam N-14) = 15.6 µL/min/mg Protein
2. CC[C@@H]1NC(=O)[C@H](CC(C)C)N(C)C(=O)[C@H]([C@@H](C)CC)NC(=O)CN(C)C(=O)C[C@@H](C)NC(=O)[C@H](C(C)C)N(C)C(=O)[C@H](COC(C)(C)C)NC(=O)[C@H](CC(C)C)N(C)C(=O)[C@H](Cc2ccccc2)N(C)C(=O)[C@H](CC(C)C)NC(=O)CN(C)C(=O)[C@H]([C@@H](C)O)NC(=O)[C@H](CC(C)C)N(C)C1=O [pd129] (cyclo([Abu][NMeL]T[Sar]L[NMeF][NMeL]S(tBu)[NMeV][d(β3hA)][Sar]I[NMeL])) = 19.7 µL/min/mg Protein

// data source = patent EP4768499A1
